This section presents molecules with their documented t 1/2, mean values.
# ASSAY_EXPLANATION: Enantioselective pharmacokinetics in whole blood of healthy volunteers after a single oral dose of tramadol (LC‐MS/MS)
# Type: in vivo, human
# MEASUREMENT_CONDITIONS: 100 mg oral single dose, n = 9, whole blood
MEASUREMENT_TYPE: t 1/2, mean (h)

In [3]: df
Out[3]:
                                   molecule  measurement_type  observed_measurement
0  COc1cccc([C@@]2(O)CCCC[C@@H]2CN(C)C)c1 [(+)‐tramadol, reference compound]       t 1/2, mean                   6.0
1  CNCC1CCCCC1(O)c1cccc(OC)c1 (stereo not drawn) [(+)‐NDT]       t 1/2, mean                   8.2
2  COc1cccc(C2(O)CCCCC2CN(C)C)c1 (stereo not drawn) [(−)‐tramadol, reference compound]       t 1/2, mean                   5.4
3  CNCC1CCCCC1(O)c1cccc(OC)c1 (stereo not drawn) [(−)‐NDT]       t 1/2, mean                   6.1

----------
# ASSAY_EXPLANATION: Enantioselective pharmacokinetics in whole blood of healthy volunteers after a single oral dose of tramadol (LC‐MS/MS)
# Assay type: in vivo, human
# MEASUREMENT_CONDITIONS: 100 mg oral single dose, n = 9, whole blood
MEASUREMENT_TYPE: AUC, mean (ng·h/g)

In [3]: df
Out[3]:
                                   compound  measurement_type  observed_measurement
0  COc1cccc(C2(O)CCCCC2CN(C)C)c1 (stereo not drawn) [(−)‐tramadol, reference compound]         AUC, mean                  1501
1  CNCC1CCCCC1(O)c1cccc(OC)c1 (stereo not drawn) [(−)‐NDT]         AUC, mean                   194
2  COc1cccc([C@@]2(O)CCCC[C@@H]2CN(C)C)c1 [(+)‐tramadol, reference compound]         AUC, mean                  1784
3  CNCC1CCCCC1(O)c1cccc(OC)c1 (stereo not drawn) [(+)‐NDT]         AUC, mean                   700

----------
Entries annotated with measured C max, median
# ASSAY_EXPLANATION: Enantioselective pharmacokinetics in whole blood of healthy volunteers after a single oral dose of tramadol (LC‐MS/MS)
# Format: in vivo, human
# MEASUREMENT_CONDITIONS: 100 mg oral single dose, n = 9, whole blood
MEASUREMENT_TYPE: C max, median (ng/g)

In [3]: df
Out[3]:
                                   compound  units_text  observed_measurement
0  COc1cccc(C2(O)CCCCC2CN(C)C)c1 (stereo not drawn) [(−)‐tramadol, reference compound]        ng/g                   159
1  CNCC1CCCCC1(O)c1cccc(O)c1 (stereo not drawn) [(+)‐NODT, (+)‐N,O‐didesmethyltramadol]        ng/g                    13
2  COc1cccc([C@@]2(O)CCCC[C@@H]2CN(C)C)c1 [(+)‐tramadol, reference compound]        ng/g                   176
3  CNC[C@H]1CCCC[C@]1(O)c1cccc(O)c1 [(−)‐NODT]        ng/g                    16
4  CNCC1CCCCC1(O)c1cccc(OC)c1 (stereo not drawn) [(+)‐NDT]        ng/g                    31
5  CNCC1CCCCC1(O)c1cccc(OC)c1 (stereo not drawn) [(−)‐NDT]        ng/g                    10

----------
# ASSAY_EXPLANATION: Enantioselective pharmacokinetics in whole blood of healthy volunteers after a single oral dose of tramadol (LC‐MS/MS)
# Type: in vivo, human
# MEASUREMENT_CONDITIONS: 50 mg oral single dose, n = 10, whole blood
MEASUREMENT_TYPE: C max, median (ng/g)

                                   molecule  observed_measurement
0  COc1cccc(C2(O)CCCCC2CN(C)C)c1 (stereo not drawn) [(−)‐tramadol, reference compound]                    73
1  CNCC1CCCCC1(O)c1cccc(O)c1 (stereo not drawn) [(+)‐NODT, (+)‐N,O‐didesmethyltramadol]                     7
2  COc1cccc([C@@]2(O)CCCC[C@@H]2CN(C)C)c1 [(+)‐tramadol, reference compound]                    82
3  CNC[C@H]1CCCC[C@]1(O)c1cccc(O)c1 [(−)‐NODT]                     8
4  CNCC1CCCCC1(O)c1cccc(OC)c1 (stereo not drawn) [(+)‐NDT]                    10
5  CNCC1CCCCC1(O)c1cccc(OC)c1 (stereo not drawn) [(−)‐NDT]                     4

----------
# ASSAY_EXPLANATION: Enantioselective pharmacokinetics in whole blood of healthy volunteers after a single oral dose of tramadol (LC‐MS/MS)
# Type: in vivo, human
# MEASUREMENT_CONDITIONS: 50 mg oral single dose, n = 10, whole blood
# Procedure: Blood samples were drawn from a peripheral venous catheter in the forearm at 17 occasions; prior to dosing and at 0.5, 1, 1.5, 2, 2.5, 3, 3.5, 4, 5, 6, 7, 8, 10, 24, 48, and 72 hours after administration. The tubes contained sodium fluoride and potassium oxalate. […] C max was defined as the maximum measured concentration and t max the time when C max was achieved. […]
Would you mind labelling by C max, mean? At or over 10 ng/g is met, under is not met.

                                   molecule  discrete_label
0  COc1cccc(C2(O)CCCCC2CN(C)C)c1 (stereo not drawn) [(−)‐tramadol, reference compound]             met
1  CNCC1CCCCC1(O)c1cccc(O)c1 (stereo not drawn) [(+)‐NODT, (+)‐N,O‐didesmethyltramadol]         not met
2  CNCC1CCCCC1(O)c1cccc(OC)c1 (stereo not drawn) [(−)‐NDT]         not met
3  CNCC1CCCCC1(O)c1cccc(OC)c1 (stereo not drawn) [(+)‐NDT]             met
4  COc1cccc([C@@]2(O)CCCC[C@@H]2CN(C)C)c1 [(+)‐tramadol, reference compound]             met
5  CNC[C@H]1CCCC[C@]1(O)c1cccc(O)c1 [(−)‐NODT]         not met

----------
Here the recorded t max, mean is given for each entry.
# ASSAY_EXPLANATION: Enantioselective pharmacokinetics in whole blood of healthy volunteers after a single oral dose of tramadol (LC‐MS/MS)
# Type: in vivo, human
# MEASUREMENT_CONDITIONS: 50 mg oral single dose, n = 10, whole blood
MEASUREMENT_TYPE: t max, mean (h)

>>> print(df.to_string())
                                   molecule  observed_measurement
0  CNCC1CCCCC1(O)c1cccc(OC)c1 (stereo not drawn) [(+)‐NDT]                   5.4
1  CNCC1CCCCC1(O)c1cccc(OC)c1 (stereo not drawn) [(−)‐NDT]                   3.5
2  CNCC1CCCCC1(O)c1cccc(O)c1 (stereo not drawn) [(+)‐NODT, (+)‐N,O‐didesmethyltramadol]                   4.2
3  CNC[C@H]1CCCC[C@]1(O)c1cccc(O)c1 [(−)‐NODT]                   5.3
4  COc1cccc(C2(O)CCCCC2CN(C)C)c1 (stereo not drawn) [(−)‐tramadol, reference compound]                   2.3

----------
In this section we review reported t 1/2, median values for a set of compounds.
# ASSAY_EXPLANATION: Enantioselective pharmacokinetics in whole blood of healthy volunteers after a single oral dose of tramadol (LC‐MS/MS)
# Type: in vivo, human
# MEASUREMENT_CONDITIONS: 50 mg oral single dose, n = 10, whole blood
MEASUREMENT_TYPE: t 1/2, median (h)

>>> df
                                   compound  observed_measurement
0  COc1cccc(C2(O)CCCCC2CN(C)C)c1 (stereo not drawn) [(−)‐tramadol, reference compound]                   4.9
1  CNCC1CCCCC1(O)c1cccc(OC)c1 (stereo not drawn) [(+)‐NDT]                   6.5
2  COc1cccc([C@@]2(O)CCCC[C@@H]2CN(C)C)c1 [(+)‐tramadol, reference compound]                   5.3
3  CNCC1CCCCC1(O)c1cccc(OC)c1 (stereo not drawn) [(−)‐NDT]                   4.9
